# run_conditions: in acetone, 298.15 K
metric: solubility (mole fraction)
Answers are plain numbers.

Data request: Record request: solubility (mole fraction) value, item CSCC[C@H](NC(C)=O)C(=O)O
Data returned: 0.0899

----------
# run_conditions: in dimethyl carbonate, 293.15 K
metric: solubility (mole fraction)
One number for each entry.

Data request: Record request: solubility (mole fraction) value, item CSCC[C@H](NC(C)=O)C(=O)O
Data returned: 0.00369

----------
# run_conditions: in methyl acetate, 318.15 K
metric: solubility (mole fraction)
Give bare numbers.

Data request: Record request: solubility (mole fraction) value, item CSCC[C@H](NC(C)=O)C(=O)O
Data returned: 0.052
